Can you tell me inhibition for the items I'm about to list?
# MEASUREMENT TARGET: Nucleotide-binding oligomerization domain-containing protein 2 (Homo sapiens, UniProt Q9HC29)
# Sequence (Q9HC29 whole entry, the tested form may be a part): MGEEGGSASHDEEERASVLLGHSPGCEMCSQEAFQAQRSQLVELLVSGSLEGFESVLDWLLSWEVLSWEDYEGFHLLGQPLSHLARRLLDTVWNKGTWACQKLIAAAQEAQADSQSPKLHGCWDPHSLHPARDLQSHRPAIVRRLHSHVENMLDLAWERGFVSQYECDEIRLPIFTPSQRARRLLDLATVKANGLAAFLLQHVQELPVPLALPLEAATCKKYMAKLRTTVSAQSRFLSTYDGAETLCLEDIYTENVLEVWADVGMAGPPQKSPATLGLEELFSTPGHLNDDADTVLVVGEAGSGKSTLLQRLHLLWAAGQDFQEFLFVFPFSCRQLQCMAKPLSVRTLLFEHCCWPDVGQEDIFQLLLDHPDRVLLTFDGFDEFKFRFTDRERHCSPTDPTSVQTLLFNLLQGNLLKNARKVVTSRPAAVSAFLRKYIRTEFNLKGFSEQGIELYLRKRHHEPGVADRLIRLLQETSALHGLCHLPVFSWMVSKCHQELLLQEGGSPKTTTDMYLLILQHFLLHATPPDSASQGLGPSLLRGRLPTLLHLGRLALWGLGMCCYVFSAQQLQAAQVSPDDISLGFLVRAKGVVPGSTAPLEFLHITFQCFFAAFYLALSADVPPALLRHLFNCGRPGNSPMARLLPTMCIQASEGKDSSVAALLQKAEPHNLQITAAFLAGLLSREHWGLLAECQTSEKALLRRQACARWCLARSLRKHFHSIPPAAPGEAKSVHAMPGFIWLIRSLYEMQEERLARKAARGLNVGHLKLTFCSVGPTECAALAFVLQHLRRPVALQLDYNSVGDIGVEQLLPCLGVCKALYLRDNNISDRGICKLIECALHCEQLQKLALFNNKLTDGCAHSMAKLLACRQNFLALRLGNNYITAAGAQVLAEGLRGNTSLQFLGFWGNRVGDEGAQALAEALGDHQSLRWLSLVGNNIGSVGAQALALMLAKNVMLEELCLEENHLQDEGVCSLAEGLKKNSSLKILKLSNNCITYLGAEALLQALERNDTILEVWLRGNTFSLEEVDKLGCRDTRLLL
# ASSAY PROTOCOL: Antagonist activity at human NOD2 expressed in HEK-Blue cells assessed as inhibition of MDP-stimulated cell activation at 10 uM preincubated for 3 hrs followed by MDP addition measured after 20 hrs by SEAP reporter gene assay
# Assay type: cell-based
# answer = value followed by unit

**Q:** Requested field: inhibition. Item: `COC(=O)CC[C@H]1NC(=O)c2cc(Oc3cccc(N(C)C)c3)c(NC(=O)COCc3ccc(C(F)(F)F)cc3)cc2NC1=O`
**A:** 91.9%

**Q:** Next: `COC(=O)CC[C@H]1NC(=O)c2cc(Oc3cc(Cl)cc(N(C)C)c3)c(NC(=O)COCc3ccccc3)cc2NC1=O`
**A:** 56.5%

**Q:** Next: `COC(=O)CC[C@H]1NC(=O)c2cc(Oc3cccc(N(C)C)c3)c(NC(=O)COCc3cccc(Br)c3)cc2NC1=O`
**A:** 86.7%

**Q:** Next: `COC(=O)CC[C@H]1NC(=O)c2cc(Oc3cccc(N(C)C)c3)c(NC(=O)COCc3ccc(Br)cc3)cc2NC1=O`
**A:** 95.2%

// provenance: ChEMBL document CHEMBL4014339
